- tested.system: Voltage-gated inwardly rectifying potassium channel KCNH2 (Homo sapiens, UniProt Q12809)
- Sequence (Q12809 whole entry): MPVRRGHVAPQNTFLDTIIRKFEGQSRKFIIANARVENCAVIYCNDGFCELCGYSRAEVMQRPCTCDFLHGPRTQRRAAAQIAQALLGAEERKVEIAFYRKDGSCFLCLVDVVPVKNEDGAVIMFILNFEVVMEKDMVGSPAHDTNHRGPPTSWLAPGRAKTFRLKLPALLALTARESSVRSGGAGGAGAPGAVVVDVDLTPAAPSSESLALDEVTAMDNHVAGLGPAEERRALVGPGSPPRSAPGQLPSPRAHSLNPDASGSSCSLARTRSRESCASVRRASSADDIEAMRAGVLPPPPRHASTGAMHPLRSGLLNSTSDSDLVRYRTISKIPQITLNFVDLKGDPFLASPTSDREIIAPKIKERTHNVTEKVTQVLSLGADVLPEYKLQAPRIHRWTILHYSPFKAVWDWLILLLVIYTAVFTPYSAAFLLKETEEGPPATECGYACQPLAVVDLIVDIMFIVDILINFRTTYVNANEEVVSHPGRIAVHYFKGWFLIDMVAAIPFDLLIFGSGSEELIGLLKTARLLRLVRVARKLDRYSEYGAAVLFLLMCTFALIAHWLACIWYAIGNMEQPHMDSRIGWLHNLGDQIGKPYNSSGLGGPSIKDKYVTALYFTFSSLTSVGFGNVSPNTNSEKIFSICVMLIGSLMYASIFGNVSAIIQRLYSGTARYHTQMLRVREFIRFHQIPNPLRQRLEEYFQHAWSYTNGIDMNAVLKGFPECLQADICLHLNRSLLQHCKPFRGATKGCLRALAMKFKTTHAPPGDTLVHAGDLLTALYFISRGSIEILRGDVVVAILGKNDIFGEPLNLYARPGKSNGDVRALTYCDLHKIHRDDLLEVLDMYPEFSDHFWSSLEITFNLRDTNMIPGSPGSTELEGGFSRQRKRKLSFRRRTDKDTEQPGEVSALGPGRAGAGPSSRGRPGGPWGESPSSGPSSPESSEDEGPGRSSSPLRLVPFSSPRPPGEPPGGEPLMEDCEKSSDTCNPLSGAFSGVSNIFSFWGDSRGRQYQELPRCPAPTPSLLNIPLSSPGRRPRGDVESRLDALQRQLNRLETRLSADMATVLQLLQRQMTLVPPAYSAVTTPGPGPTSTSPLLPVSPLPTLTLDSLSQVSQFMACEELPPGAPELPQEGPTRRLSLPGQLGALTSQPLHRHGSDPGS
pIC50: −log10 of the molar value.
// label = Yes if pIC50 is not less than 5, otherwise No

> print(dat)
                                   compound                             tested.system  label.class
1  NC(=O)[C@@H]1CC[C@H](c2ccc(OCc3ccccc3F)cn2)N1  Voltage-gated inwardly rectifying potassium channel KCNH2 (Homo sapiens, UniProt Q12809)           No
2  COc1cc([C@H]2CC[C@@H](C(N)=O)N2)ccc1OCc1ccccc1F  Voltage-gated inwardly rectifying potassium channel KCNH2 (Homo sapiens, UniProt Q12809)          Yes
3  NC(=O)[C@@H]1CCC[C@H](c2ccc(OCc3cccc(F)c3)cc2)N1 (stereo in doubt)  Voltage-gated inwardly rectifying potassium channel KCNH2 (Homo sapiens, UniProt Q12809)           No
4  NC(=O)[C@@H]1CC[C@H](c2cccc(Oc3ccccc3)c2)N1  Voltage-gated inwardly rectifying potassium channel KCNH2 (Homo sapiens, UniProt Q12809)           No
5  N#Cc1ccccc1COc1ccc([C@H]2CC[C@@H](C(N)=O)N2)cc1  Voltage-gated inwardly rectifying potassium channel KCNH2 (Homo sapiens, UniProt Q12809)           No

* * *

- tested.system: Sodium channel protein type 3 subunit alpha (Homo sapiens, UniProt Q9NY46)
- Sequence (Q9NY46 whole entry): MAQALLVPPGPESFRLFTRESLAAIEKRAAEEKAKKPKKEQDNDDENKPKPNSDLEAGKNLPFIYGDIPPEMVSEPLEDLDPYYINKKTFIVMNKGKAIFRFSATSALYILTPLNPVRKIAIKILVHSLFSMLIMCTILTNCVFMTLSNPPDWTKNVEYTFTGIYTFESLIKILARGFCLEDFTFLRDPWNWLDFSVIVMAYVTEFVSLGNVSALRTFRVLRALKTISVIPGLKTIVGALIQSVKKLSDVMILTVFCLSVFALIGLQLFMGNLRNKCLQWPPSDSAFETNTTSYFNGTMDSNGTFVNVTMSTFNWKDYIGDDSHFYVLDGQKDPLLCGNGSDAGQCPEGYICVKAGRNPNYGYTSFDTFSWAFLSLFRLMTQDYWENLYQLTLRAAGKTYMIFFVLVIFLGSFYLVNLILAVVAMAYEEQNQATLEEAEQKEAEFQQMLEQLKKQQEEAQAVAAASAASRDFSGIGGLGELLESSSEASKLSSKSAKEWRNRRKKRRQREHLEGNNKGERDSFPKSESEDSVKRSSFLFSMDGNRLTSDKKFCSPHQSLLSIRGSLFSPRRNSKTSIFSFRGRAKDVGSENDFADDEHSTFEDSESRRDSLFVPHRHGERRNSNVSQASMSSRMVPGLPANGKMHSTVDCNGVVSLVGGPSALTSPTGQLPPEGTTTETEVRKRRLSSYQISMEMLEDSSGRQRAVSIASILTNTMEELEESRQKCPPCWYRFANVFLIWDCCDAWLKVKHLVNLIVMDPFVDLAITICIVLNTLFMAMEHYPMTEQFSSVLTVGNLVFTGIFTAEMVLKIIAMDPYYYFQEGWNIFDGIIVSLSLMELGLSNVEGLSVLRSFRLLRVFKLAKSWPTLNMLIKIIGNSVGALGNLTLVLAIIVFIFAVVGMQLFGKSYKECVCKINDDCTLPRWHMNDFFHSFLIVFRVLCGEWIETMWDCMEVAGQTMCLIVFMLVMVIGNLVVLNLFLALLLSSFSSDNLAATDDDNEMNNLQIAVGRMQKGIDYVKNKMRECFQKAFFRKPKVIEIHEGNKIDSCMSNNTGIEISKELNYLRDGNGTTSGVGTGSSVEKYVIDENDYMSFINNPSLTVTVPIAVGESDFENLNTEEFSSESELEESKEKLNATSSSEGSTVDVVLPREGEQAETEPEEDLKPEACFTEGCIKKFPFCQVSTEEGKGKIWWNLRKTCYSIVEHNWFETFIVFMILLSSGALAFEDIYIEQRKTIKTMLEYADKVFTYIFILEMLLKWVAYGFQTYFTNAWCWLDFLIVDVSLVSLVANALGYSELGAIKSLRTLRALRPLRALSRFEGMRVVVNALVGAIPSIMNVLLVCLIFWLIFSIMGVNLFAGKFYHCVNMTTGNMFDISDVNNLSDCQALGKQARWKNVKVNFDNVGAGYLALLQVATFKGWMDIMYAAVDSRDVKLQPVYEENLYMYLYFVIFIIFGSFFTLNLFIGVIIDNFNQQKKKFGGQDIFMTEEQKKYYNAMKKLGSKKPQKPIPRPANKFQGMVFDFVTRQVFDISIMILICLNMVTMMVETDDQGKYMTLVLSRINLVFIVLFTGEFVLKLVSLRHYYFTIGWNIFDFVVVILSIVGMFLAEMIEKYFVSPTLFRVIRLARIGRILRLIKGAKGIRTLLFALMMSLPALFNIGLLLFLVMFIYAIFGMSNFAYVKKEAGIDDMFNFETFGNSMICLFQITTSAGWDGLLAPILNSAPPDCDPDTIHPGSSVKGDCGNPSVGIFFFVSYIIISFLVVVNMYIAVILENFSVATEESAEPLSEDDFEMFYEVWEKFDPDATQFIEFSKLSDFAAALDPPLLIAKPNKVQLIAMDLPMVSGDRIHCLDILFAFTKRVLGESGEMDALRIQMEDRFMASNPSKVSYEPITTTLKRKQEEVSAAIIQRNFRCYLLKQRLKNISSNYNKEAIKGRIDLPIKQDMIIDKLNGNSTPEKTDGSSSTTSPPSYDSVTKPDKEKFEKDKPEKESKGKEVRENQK
- test.name: Inhibition of Nav1.3 (unknown origin) expressed in HEK293 cells assessed as inhibition of sodium current incubated for 3 to 3.5 mins by electrophysiology assay
pIC50: −log10 of the molar value.
recorded.endpoint: pIC50

> print(dat)
                                    compound  recorded.endpoint  result.value
 1  CNC(=O)[C@@H]1CC[C@H](c2ccc(OCc3ccccc3F)cc2)N1              pIC50        < 4.20
 2  NC(=O)[C@@H]1CC[C@H](c2ccc(OCc3ccc(F)cc3)cc2)N1              pIC50        < 4.20
 3  NC(=O)[C@@H]1CC[C@H](c2ccc(Oc3ccc(F)cc3)cc2)N1              pIC50        < 4.00
 4  NC(=O)[C@@H]1CSC[C@H](c2ccc(OCc3cccc(F)c3)cc2)N1 (racemic)              pIC50        < 4.05
 5  NC(=O)[C@@H]1CC[C@H](c2ccc(OCc3ccccc3F)cc2F)N1              pIC50        < 4.00
 6   NC(=O)[C@@H]1CSc2cc(OCc3ccccc3F)ccc2CN1              pIC50        < 4.00
 7  NC(=O)[C@H]1CC[C@H](c2ccc(OCc3ccccc3F)cc2)N1              pIC50        < 4.10
 8  N#Cc1ccccc1COc1ccc([C@H]2CC[C@@H](C(N)=O)N2)cc1              pIC50        < 4.20
 9       NC(=O)CN1CCCc2cc(OCc3ccccc3F)ccc2C1              pIC50        < 4.10
10         NC(=O)CN1Cc2ccc(OCc3ccccc3F)cc2C1              pIC50        < 4.00
11        O=C1CN(Cc2ccc(OCc3ccccc3F)cc2)CCN1              pIC50        < 4.10
12  N#Cc1ccc(COc2ccc([C@H]3CC[C@@H](C(N)=O)N3)cc2)cc1              pIC50        < 4.20
13        NC(=O)CN1CCOc2cc(OCc3ccccc3)ccc2C1              pIC50        < 4.10
14  C[C@@H](C(N)=O)N1CCc2cc(OCc3ccccc3F)ccc2C1              pIC50        < 4.10
15  N#Cc1ccccc1Oc1ccc([C@H]2CC[C@@H](C(N)=O)N2)cc1              pIC50        < 4.00
16  CC(C(N)=O)N1CCOc2cc(OCc3ccccc3F)ccc2C1 (centres undefined)              pIC50        < 4.20
17  NC(=O)[C@@H]1CC[C@H](c2ccc(OCc3ccccc3)cc2)N1              pIC50        < 4.20
18  NC(=O)[C@@H]1CC[C@H](c2cccc(Oc3ccccc3)c2)N1              pIC50        < 4.00
19  C[C@H](NC1CCOc2cc(OCc3ccccc3F)ccc21)C(N)=O (some centres undefined)              pIC50        < 4.10
20  N#Cc1cc([C@H]2CC[C@@H](C(N)=O)N2)ccc1OCc1ccccc1F              pIC50        < 4.30
21  NC(=O)[C@@H]1CC[C@H](c2ccc(OCc3cccc(F)c3)cc2)N1              pIC50        < 4.00
22  CN1[C@@H](c2ccc(OCc3ccccc3F)cc2)CC[C@H]1C(N)=O              pIC50        < 4.00
23  N#Cc1cccc(COc2ccc([C@H]3CC[C@@H](C(N)=O)N3)cc2)c1              pIC50        < 4.20
24  NC(=O)C1CCC(c2ccc(OCc3ccccc3F)cc2)N1 (centres undefined)              pIC50  4.00 to 4.20

* * *

Below are molecules with their IC50 as measured on Voltage-gated inwardly rectifying potassium channel KCNH2 (Homo sapiens, UniProt Q12809).
recorded.endpoint: IC50

> print(dat)
                                   molecule  result.value
1  Cl.NC(=O)[C@@H]1CC[C@H](c2ccc(OCc3ccccc3F)cc2)N1 [RAXATRIGINE HYDROCHLORIDE]       12.6 µM
2  NC(=O)[C@@H]1CC[C@H](c2ccc(Oc3ccccc3)cc2)N1       12.6 µM
3  NC(=O)[C@H]1CC[C@@H](c2ccc(OCc3ccccc3F)cc2)N1         10 µM
4  NC(=O)[C@@H]1CC[C@H](c2ccc(OCc3ccccc3)cc2)N1       7.94 µM
5  N#Cc1ccc(COc2ccc([C@H]3CC[C@@H](C(N)=O)N3)cc2)cc1       7.94 µM

Each recorded value in this set is attributed to ChEMBL document CHEMBL4622996.
